Assay read-out pIC50 on MMP-8 (Homo sapiens, UniProt P22894); records merged from the literature.
pIC50: −log10 of the molar value.
Measurement Type: pIC50

{"columns": ["Compound", "pIC50"],
 "data": [
  ["O=c1c2ccccc2nc(-c2ccc(OS(=O)(=O)O)cc2)n1CCCCCCCCCn1cc(Cn2c(-c3ccc(OS(=O)(=O)O)cc3)nc3ccccc3c2=O)nn1", 4.60],
  ["O=c1c2ccccc2nc(-c2ccc(OS(=O)(=O)O)cc2)n1CCCCCCCCCCn1cc(Cn2c(-c3ccc(OS(=O)(=O)O)cc3)nc3ccccc3c2=O)nn1", 4.82],
  ["O=P(O)(O)C(NS(=O)(=O)c1ccc2ccccc2c1)P(=O)(O)O", 4.57],
  ["O=C(Nc1ccc2nc(NC(P(=O)(O)O)P(=O)(O)O)sc2c1)c1ccccc1", 5.05],
  ["O=C(Nc1ccccc1)Nc1ccc2nc(NC(P(=O)(O)O)P(=O)(O)O)sc2c1", 4.82],
  ["Cc1ccc(C(=O)Nc2ccc(S(=O)(=O)NC(P(=O)(O)O)P(=O)(O)O)cc2)cc1", 6.11]
]}

(A) O=P(O)(O)C(Nc1nc2ccc(Cl)cc2s1)P(=O)(O)O
(B) Nc1ccc(S(=O)(=O)NC(P(=O)(O)O)P(=O)(O)O)cc1
(C) O=P(O)(O)C(Nc1nc2ccc(F)cc2s1)P(=O)(O)O
Request: Arrange these compounds by their pIC50, starting with the largest number. Reply format: the labels, ordered as requested.
Result: A, C, B
(A: 4.84, C: 4.49, B: 4.18)

(a) CC(N)C(=O)Nc1ccc2nc(NC(P(=O)(O)O)P(=O)(O)O)sc2c1 (stereo not drawn)
(b) O=P(O)(O)C(NS(=O)(=O)c1cccc2ccccc12)P(=O)(O)O
Request: Hi team, can someone confirm which has the larger pIC50: a or b ? Thanks. Response format: the label of the selected entry.
Result: b
(b: 4.50, a: 4.27)

====

pIC50 values for MMP-8 (Homo sapiens, UniProt P22894) compiled from several publications are listed below.
pIC50: −log10 of the molar value.
Measurement Type: pIC50

{"columns": ["Structure Smiles", "pIC50"],
 "data": [
  ["O=C1c2ccccc2C(=O)N1c1ccc(S(=O)(=O)NC(P(=O)(O)O)P(=O)(O)O)cc1", 4.35],
  ["O=C(Nc1cccc(S(=O)(=O)NC(P(=O)(O)O)P(=O)(O)O)c1)c1ccccc1", 4.10],
  ["COCc1ccccc1NCc1ccc([C@H]2[C@@H](O)CCCc3cncn32)c(-c2ccccc2Cl)c1", 4.23]
]}

(a) O=C(Nc1ccc2nc(NC(P(=O)(O)O)P(=O)(O)O)sc2c1)c1ccc(Br)cc1
(b) O=C(Nc1ccc(S(=O)(=O)NC(P(=O)(O)O)P(=O)(O)O)cc1)c1ccc([N+](=O)[O-])cc1
(c) O=C1c2ccccc2C(=O)N1c1ccc2nc(NC(P(=O)(O)O)P(=O)(O)O)sc2c1
(d) O=C(Nc1ccc(S(=O)(=O)NC(P(=O)(O)O)P(=O)(O)O)cc1)c1cccc2ccccc12
Request: Hey, can you sort those molecules up there by pIC50, smallest first? # output: labels, in the requested order
Result: a, d, c, b
(a: 4.22, d: 4.60, c: 4.92, b: 6.34)
